Reference for the values: PubChem BioAssay (NCI)

# Tested on: BT-549 breast
# protocol: NCI-60 one-dose screen, 48 h (100 = growth as untreated, 0 = no growth, -100 = all killed)
# runParameters: 10 µM unless noted
The panel holds about 83,000 compounds, 20% with a hit somewhere; the sample as a whole holds those more often.
Would you mind labelling by growth? At or over 90% is criterion met, under is criterion not met.

Worked examples, 5 compounds total:
>>> print(df.to_string())
                                   compound  targetortestsystem           category
0  CCN1CCN(CCNc2nccc(-c3c(-c4cccc(OC)c4)nc4occn34)n2)S1(=O)=O       BT-549 breast      criterion met
1                OCc1cnc2ccccc2c1NC1CCCCCC1       BT-549 breast      criterion met
2  O=C(Cc1ccc(/C=C/C(=O)c2ncc[nH]2)cc1)Nc1ccc(Cl)cc1       BT-549 breast  criterion not met
3  N#CC1=C(N)Oc2c(ccc3ccccc23)C1c1ccccc1Cl (stereo not given)       BT-549 breast  criterion not met
4  N#CC1=C(N)Oc2c(cnn2-c2ccc([N+](=O)[O-])cc2[N+](=O)[O-])C1c1ccccc1 (stereo not given)       BT-549 breast      criterion met

Moving on to the next compound.
State whether the measured growth reaches 90%, counting equality as reaching it, for O=C(N/N=C/c1ccc(Oc2ccccc2)cc1)c1cnn2c1NC(c1ccccc1)C2 (stereo not given)
criterion not met
